# Protocol summary: Stability of radiolabeled conjugates in buffer (radiochemical purity over time)
# Format: physicochemical
# Reported conditions: NH4-acetate buffer pH 5.2, ethanol, room temperature, time point 2 h
Where no end group is shown, it is not given here. [ ]: non-standard residue; d: D form. The star is where a group is joined. DOTA = O=C(O)CN1CCN(CC(=O)O)CCN(CC(=O)*)CCN(CC(=O)O)CC1
The substances listed here are annotated with their Radiochemical purity.
Endpoint name: Radiochemical purity (%)

[^177Lu]Lu-DOTA-K-JM#29: ^177Lu-labeled DOTA-K-JM #29 (SEQ ID NO.: 165) ([dL]LRWSRKMPCVSK(DOTA); also: 177Lu complex of DOTA): 92
[^177Lu]Lu-DOTA-K-JM#21: ^177Lu-labeled DOTA-K-JM #21 (SEQ ID NO.: 101) (ILRWSRKLPCVSK(DOTA); also: 177Lu chelated): 92
[^177Lu]Lu-DOTA-K-JM#122: ^177Lu-labeled DOTA-K-JM #122 (SEQ ID NO.: 102) (ILRWSRKLPSVSK(DOTA); also: 177Lu complex of DOTA): 96
[^177Lu]Lu-DOTA-JM#118: ^177Lu-labeled DOTA-JM #118 (SEQ ID NO.: 166) (ILRWSRK(DOTA)-NH2; also: 177Lu complex of DOTA): 97

###

# Protocol summary: Functional stability assay in human plasma
# Reported conditions: human, plasma
Where a SMILES comes first, the peptide text is derived from it.
Endpoint name: half-life at 20 μM (min)

CC(C)C[C@H](NC(=O)[C@@H](NC(=O)[C@@H]1CCCN1C(=O)[C@@H](NC(=O)[C@H](CO)NC(=O)[C@@H](NC(=O)[C@H](CCC(N)=O)NC(=O)[C@@H]1CCCN1C(=O)[C@@H](NC(=O)[C@H](CCCCN)NC(=O)[C@H](CCCCN)NC(=O)[C@@H](NC(=O)[C@H](Cc1ccc(O)cc1)NC(=O)[C@H](CCCNC(=N)N)NC(=O)[C@@H](NC(=O)[C@@H](N)CC(C)C)C(C)C)[C@@H](C)O)C(C)C)C(C)C)[C@@H](C)O)[C@@H](C)O)C(=O)O [EPI-X4] (H-LVRYTKKVPQVSTPTL-OH; N-terminus and C-terminus assumed): 17

###

# Tested on: CXCL12-induced ERK signaling
# Protocol summary: ERK/AKT signaling assay in SupT1 cells: ERK phosphorylation
# Type: cell-based
# Reported conditions: 1 μM
Where a SMILES comes first, the peptide text is derived from it.
Endpoint name: reduction of CXCL12-induced ERK signaling

CC[C@H](C)[C@H](N)C(=O)N[C@@H](CC(C)C)C(=O)N[C@@H](CCCNC(=N)N)C(=O)N[C@@H](Cc1c[nH]c2ccccc12)C(=O)N[C@@H](CO)C(=O)N[C@@H](CCCNC(=N)N)C(=O)N[C@@H](CCCCN)C(=O)N[C@@H](CCSC)C(=O)N1CCC[C@H]1C(=O)N[C@@H](CS)C(=O)N[C@@H](CC(C)C)C(=O)N[C@@H](CO)C(=O)O [JM #18] (H-ILRWSRKMPCLS-OH; C-terminus assumed): ~70%

// provenance: patent US20230131339A1
